Biological target: T1, P7A-bN
T1 chain: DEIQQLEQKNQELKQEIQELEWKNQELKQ
Test: two-hybrid library CCNG1;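 also: natural log of median RNA to DNA barcode read ratio; higher means stronger binding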
Recorded metric: interaction score

Illustrative cases are given below, each with its answer.
>  <Binder>
DEIQQLEQEIQELEQKNQELKWKNQELKQ [P3A-bN]

>  <interaction score>
0.502

$$$$
>  <Binder>
DKIQQLKQKIQELKQENQELEWENQELEQ [P4A-bN]

>  <interaction score>
-1.45

$$$$
>  <Binder>
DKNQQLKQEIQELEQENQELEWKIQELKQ [P6A-bN]

>  <interaction score>
0.204

$$$$
>  <Binder>
DEIQQLEQENQELEQENQELEWEIQELEQ [P1A-bN]

>  <interaction score>
-1.2

$$$$

A. DENQQLEQKIQELKQKNQELKWEIQELEQ [P5A-bN]
B. DKNQQLKQKIQELKQKIQELKWENQELEQ [P12A-bN]
C. DKIQQLKQKNQELKQKNQELKWKIQELKQ [P2A-bN]
Arrange the 3 entries by interaction score so the values rise. Use the labels to give the requested order.
C, A, B
(C: -2.31, A: -1.53, B: -0.617)

From: paper PMC10397247
